Listing of entries alongside the reported TGR5 Efficacy (%) (10 µM).
Target: TGR5 (Homo sapiens)
Construct: host or cells: CHO cells
Sequence (Q8TDU6 1-330): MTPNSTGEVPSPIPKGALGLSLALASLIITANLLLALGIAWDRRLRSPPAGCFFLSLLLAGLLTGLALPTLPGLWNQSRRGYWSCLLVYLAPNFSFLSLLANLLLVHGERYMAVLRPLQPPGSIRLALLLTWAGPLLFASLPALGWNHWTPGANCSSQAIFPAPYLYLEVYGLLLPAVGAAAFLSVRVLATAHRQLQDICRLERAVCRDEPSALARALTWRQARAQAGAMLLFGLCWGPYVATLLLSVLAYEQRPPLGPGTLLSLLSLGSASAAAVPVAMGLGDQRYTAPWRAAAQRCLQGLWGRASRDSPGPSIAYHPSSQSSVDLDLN
Assay: TGR5 cAMP assay in CHO cells transfected with TGR5 (cAMP Hunter eXpress, Discover X)
Assay type: cell-based
Conditions: 10 µM; % vs INT-767 10 µM as 100%
Procedure: TGR5 agonist activity was evaluated by transfecting CHO cells with TGR5 using the Discover X expression kit (cAMP Hunter eXpress GPCR Assay, Discover X Fremont, CA). Cells were incubated with test compounds for 0.5 h, and intracellular cAMP levels were measured using the multi-mode microplate reader. TGR5 agonist activity was evaluated by transfecting CHO cells with TGR5 using the Discover X expression kit (cAMP Hunter eXpress Assay Kit, Discover X Fremont, CA, USA). […]
Attribute Measured: TGR5 Efficacy (%) (10 µM)

{"columns": ["Molecule", "Attribute Measured", "Result"],
 "data": [
  ["CN(C)c1ccc(-c2ccc(CN(C(=O)c3ccc(O)cc3Cl)c3cc(Cl)cc(Cl)c3)cc2)cc1 [Compound 13af]", "TGR5 Efficacy (%) (10 µM)", -0.2],
  ["CN(C)c1ccc(-c2ccc(CN(C(=O)c3ccncc3C3CC3)c3cc(Cl)cc(Cl)c3)cc2)cc1 [Compound 13w]", "TGR5 Efficacy (%) (10 µM)", 73.1],
  ["Cc1cnccc1C(=O)N(C[C@H]1CC[C@H](c2ccccc2)CC1)c1cc(Cl)cc(Cl)c1 [Compound 20a]", "TGR5 Efficacy (%) (10 µM)", 22.3],
  ["COC(=O)/C=C/c1cccc(N(Cc2ccc(-c3ccc(N(C)C)cc3)cc2)C(=O)c2ccncc2C)c1C [Compound 13i]", "TGR5 Efficacy (%) (10 µM)", 47.2]
]}

====

test: Pharmacokinetics in rats; assay type: in vivo, Sprague-Dawley rats; conditions: Sprague-Dawley, rat, plasma, iv, 3mg/kg, n=3

{"columns": ["Compound", "Cmax (ng/mL)"],
 "data": [
  ["COc1ccc(C23CCC(CN(C(=O)c4ccncc4C)c4cc(Cl)cc(Cl)c4)(CC2)CC3)cc1C#N [Compound 20q]", 2580]
]}

====

Target: GPR119 (Homo sapiens)
Construct: Eurofine Cerep / Eurofine Panlabs Discovery Services
Sequence (Q8TDV5 1-335): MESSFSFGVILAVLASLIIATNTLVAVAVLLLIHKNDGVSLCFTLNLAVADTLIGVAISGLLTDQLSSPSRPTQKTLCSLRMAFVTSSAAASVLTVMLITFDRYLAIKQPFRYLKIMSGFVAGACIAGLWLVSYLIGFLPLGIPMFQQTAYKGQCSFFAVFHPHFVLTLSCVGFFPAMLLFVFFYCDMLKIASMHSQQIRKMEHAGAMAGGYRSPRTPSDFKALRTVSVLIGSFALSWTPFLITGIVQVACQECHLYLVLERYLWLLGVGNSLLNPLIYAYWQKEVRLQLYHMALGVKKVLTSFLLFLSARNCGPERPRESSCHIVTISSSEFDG
Test: Selectivity, cellular functional assay
Type: cell-based
Details: cellular functional assay

{"columns": ["Compound", "EC50"],
 "data": [
  ["COc1cc(Cl)cc(N(CC23CCC(c4ccc(OC)c(C#N)c4)(CC2)CC3)C(=O)c2ccncc2C)c1 [Compound 20p]", "> 30 µM"]
]}
